- study.system: SpAbp1-D1
- measurement.description: SPOT peptide array binding signal intensity (averaged, normalized) (arbitrary units (background-subtracted, floor 0; scale differs between SH3 domains)); higher = stronger binding of the SH3 domain to the peptide
Quick reference for SPOT peptide array binding signal intensity among some binders
Reply with the value as a number alone.

1) LLIRWLILMPLVGSR 248

Attention now turns to another entry.
Using the record for SSAAPPPPPRRATPE , report its SPOT peptide array binding signal intensity. 160
